details: buffer; pH 7.4; 200.0 µM
measurement type: solubility kinetic

Give reported solubility kinetic value for "COc1ccc(/C=C/C(=O)N2CCN(c3ccccn3)CC2)cc1OC"
> 53 µg/mL

Give reported solubility kinetic value for "O=C(OCc1cccc([N+](=O)[O-])c1)c1ccc[nH]c1=O"
> 41.1 µg/mL

Give reported solubility kinetic value for "Cc1ccc(NC(=O)CCN2CCOCC2)cc1C"
> 39.4 µg/mL

Give reported solubility kinetic value for "O=C(Nc1nccs1)c1ccc(COc2ccccc2Cl)o1"
0.9 µg/mL

Give reported solubility kinetic value for "O=C(CCC(=O)N1CCN(S(=O)(=O)c2ccc([N+](=O)[O-])cc2)CC1)N1CCOCC1"
> 66.1 µg/mL

Give reported solubility kinetic value for "CCN(CC)CCCNc1nc(C)cc(COC)c1C#N"
> 43.6 µg/mL

Give reported solubility kinetic value for "Cc1cccc(N=C2NC(=O)/C(=C/c3cccnc3)S2)c1C"
5.1 µg/mL

Give reported solubility kinetic value for "Cc1ccc2nc(SCC(=O)NC3CC3)[nH]c2c1"
> 39.2 µg/mL

Give reported solubility kinetic value for O=C(O)CCC(=O)N(Cc1ccco1)C1CC(=O)N(c2ccccc2)C1=O (configuration not stated)
> 55.6 µg/mL

Give reported solubility kinetic value for "NC(=O)CSc1nnc(Cc2ccc3c(c2)OCO3)o1"
> 44 µg/mL

Give reported solubility kinetic value for "O=C(O)c1ccc2c(=O)n3c(nc2c1)/C(=C/c1ccc(F)cc1)CC3"
> 50.4 µg/mL

Give reported solubility kinetic value for "Cc1ccc(NC(=O)CCOc2ccccc2C)cc1F"
2.5 µg/mL
